B1: ADAMTS4 (parent)
chain: SFRKFRYGYNNVVTIPAGATHILV

# Variants of: B1
# test_details: protein stability index of a GFP-peptide fusion (GPS, HEK-293T) (PSI 1-6); higher = more stable;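 also: lentivirally expressed fusions sorted by FACS into six bins by GFP to DsRed ratio, PSI derived from sequencing read proportions per bin multiplied by bin number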
# condition: c terminus: a fixed tail appended
reported_endpoint: protein stability index
Give the value as a plain number.

Lab book: protein stability index of I22V noted as 1.79

Lab book: protein stability index of T14C noted as 1.81

Lab book: protein stability index of R6D noted as 2.22

***
Lab book: protein stability index of T20K noted as 2.24

Lab book: protein stability index of G18N noted as 1.27

Lab book: protein stability index of N10I noted as 3.13

meta.source: the supplement of paper PMC10567573
